B1: CPEB3 Ribozyme (parent)
chain: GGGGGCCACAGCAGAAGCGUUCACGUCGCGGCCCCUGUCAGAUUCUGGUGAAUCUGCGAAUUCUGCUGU

- Variants of: B1
- measurement_description: self-cleavage, relative activity (ratio to wild type); higher = more cleavage; co-transcriptional
readout_name: self-cleavage
// return just the number, without any unit appended

Here's what some known entries look like.
[[record]]
sequence_change = "C45G C57A"
readout_name = "self-cleavage"
observed_result = 0.318

[[record]]
sequence_change = "G1A G56U"
readout_name = "self-cleavage"
observed_result = 0.103

[[record]]
sequence_change = "C39A C57U"
readout_name = "self-cleavage"
observed_result = 0.346


Problem: Sample G47A G58C — what was its self-cleavage?
Solution: 0.951

Problem: Now give it for G4A G19U too.
Solution: 0.178
